B1: tRNA (parent)
chain: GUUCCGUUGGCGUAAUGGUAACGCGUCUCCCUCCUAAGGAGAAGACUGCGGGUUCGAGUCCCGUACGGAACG

Variants of: B1
protocol_summary: yeast fitness relative to wild type (ratio to wild type); higher = fitter; tRNA-Arg(CCU), competitive growth, 37 C, YPD
This sample holds only a part of the variants without activity.
Note to self: values exactly at 0.6 are Condition met. So yeast fitness at or above 0.6 is Condition met, below is Condition not met.

>>> print(df.to_string())
                            ordered_residues           category
 0  GUUCCGUUGGCGUAAUGCUAACGCCUCUCCCUCCUAAGGAGAAGACUGCGGGUUCGAGUCCCGUACGGAACG      Condition met
 1  GUUCCGUUGGCGUAAUGGUAACGCGUCUCCCUCCUAAGGAGAAGAGUGCGGGUUCGAGUCCCGUUCGGAACG      Condition met
 2  GUUCCGUUGGCGUAAUGGUAGCGCGUCUCCCUCCUUAGGAGAAGACUGCGGGAUCGAGUCCCGUACGGAACG  Condition not met
 3  GUUCCGUAGGCGUAAUGGUAACGCGUCUCCCUCCUAAGGAGAAGAAUGCGGGUUCGAGUCCCGUACGCAACG  Condition not met
 4  GUUCCGUUGGCGUAAUGGUAACCCGUCUCCAUCCUAAGGAGAAGACUGCGGGUUCGAGUCCAGUACGGAACG  Condition not met
 5  GUUCCGUUGGCGUAAUGGUAACGCGUCUCCCUCCUCAGGAGAAGACUGCGGGUUCGUGUACCGUACGGAACG  Condition not met
 6  GUUCCGUUGGGGUAAUGGUAACGCGUCUCACUCCUAAGGAGCAGACUGCGGGUUCGAGUCACGUACGGAACG  Condition not met
 7  GUUCCGUUGGCGUAAUGGUAACGCGUCACCCUCCCACGGAGAAGACUGCGGGUUCGAGUCCCGAACAGAACG  Condition not met
 8  GUUCCGUUGGCGUAAGGGUAACGCGUCUCCCUCCUAAGGAGAAGACUGCGCGUUCGAGUCCCGUCCGGAACG      Condition met
 9  GUUACGUCGACGUAAUGGUAACGCGUCUCCCUCCUAAGGAGCAGACUGCGGGUUCGAGUCCCGUACGGAACG  Condition not met
10  GUUUCGUUGGCGUAAUGGUAACGGGUCUCCCUCCUAAGGAGAAGACUGCGGGUUCGAGUCUCGUACGGAACG  Condition not met
11  GUUCAGUUGGCGUAAUGGUAACGCGUCUCCCUCCUAAGCAGAAGACUGCGGGUUCGAGUGCAGUACGGAACG  Condition not met
12  GUUCCGUUGGCGUAAUGGGAAUGCGUCUCCUUCCUAAGGUGAAGACUGCGGGUUCGAGUCCCGUACAGAACG      Condition met
